assay: NCI Yeast Anticancer Drug Screen. Data for the mec2-1 strain (AID 157); settings: S. cerevisiae mec2-1 strain, at 50.0 µM (retest, dose inferred, filed as 5.0)
Compounds without any hit were thinned out: in the full panel of roughly 79,000, 15% have a hit. Calls of active or inactive are those of the source. No stated cut-off is given here; in the data, active means growth inhibition above about 70%; inactive means the rest.
Outcome codes: active, inactive

INSERT INTO assay_data (compound, category_label) VALUES
  ('Nc1cc2c(cc1N)-c1ccccc1C2=O', 'inactive'),
  ('C[n+]1c(-c2ccc(/C=N/NC(=O)c3ccc(C(=O)N/N=C/c4ccc(-c5cn6ccccc6[n+]5C)cc4)cc3)cc2)cn2ccccc21', 'inactive'),
  ('Cc1oc2ccccc2c(=O)c1Cn1nnc2ccccc21', 'inactive'),
  ('O=C1CCC(Cc2ccccc2)CN1 (stereo not given)', 'inactive'),
  ('c1c[nH]c(CN2CCN(Cc3ncc[nH]3)CC2)n1', 'active'),
  ('O=C(O)c1cc2c(cc1S(=O)(=O)O)C1C(C3C2C2(Cl)C(Cl)=C(Cl)C3(Cl)C2(Cl)Cl)C2(Cl)C(Cl)=C(Cl)C1(Cl)C2(Cl)Cl (stereo not given)', 'active'),
  ('CC(=O)CCC1=C(C)C(=O)C(=O)C(C)=C1O', 'inactive'),
  ('CC(C)(Br)C(=O)/C=C/c1ccccc1', 'active'),
  ('O=C(NNc1ccccc1)C(CCCCNS(=O)(=O)Cc1ccccc1)NS(=O)(=O)Cc1ccccc1 (stereo not given)', 'inactive'),
  ('O=C1c2ccccc2-c2ccc(N=Cc3ccccc3)cc21', 'inactive');

Source: PubChem BioAssay (NCI)
